TARGET_OR_SYSTEM: T1, recombinant human CD123-Fc (human, UniProt P26951 19-305)
T1 construct: not shown: Fc part of CD123-Fc
T1 sequence: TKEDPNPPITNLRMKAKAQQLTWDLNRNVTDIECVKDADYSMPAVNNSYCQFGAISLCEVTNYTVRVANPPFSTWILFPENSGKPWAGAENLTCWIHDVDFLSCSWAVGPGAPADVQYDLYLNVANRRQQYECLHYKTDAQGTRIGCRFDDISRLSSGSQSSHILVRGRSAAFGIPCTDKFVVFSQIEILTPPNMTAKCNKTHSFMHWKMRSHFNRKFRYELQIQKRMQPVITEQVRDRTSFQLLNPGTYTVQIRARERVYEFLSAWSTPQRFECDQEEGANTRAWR
ASSAY_PROTOCOL: phage ELISA, captured CD123-Fc
ELISA_avg values, listed per item
Report the figure in ratio A450 target/IgG1-Fc without appending any unit label.

{"BINDER": "SEQ ID NO: 546 (designed binder, D domain, on phage) MGSWNEFDDRLLAIWGRLDALGGSEAELAFFEEQIAGFEDELQWYKGKGNPEVEALDQEAEAIEKELWAYRHN", "MEASUREMENT_UNITS": "ratio A450 target/IgG1-Fc", "ASSAY_RESULT": 4.1}
{"BINDER": "SEQ ID NO: 617 (designed binder, D domain, on phage) MGSWDEFAMRLEAIQARLFALGGSEAELAIFEDEIAFFETMLQDYKGKGNPEVEALEYEAAAIEAELGAYRHN", "MEASUREMENT_UNITS": "ratio A450 target/IgG1-Fc", "ASSAY_RESULT": 3.7}
{"BINDER": "SEQ ID NO: 326 (designed binder, D domain, on phage) MGSWTEFSIRLEAIYDRLVALGGSEAELAAFEKEIAAFESELQAYKGKGNPEVEVLRTYAAFIRHELQAYRHN", "MEASUREMENT_UNITS": "ratio A450 target/IgG1-Fc", "ASSAY_RESULT": 10.2}
{"BINDER": "SEQ ID NO: 452 (designed binder, D domain, on phage) MGSWTFFKWDLADIKANLEALGGSEAELAWFEEDLAGFEAELQEYKGKGNPEVEALRKEAAAIRDELQAYRHN", "MEASUREMENT_UNITS": "ratio A450 target/IgG1-Fc", "ASSAY_RESULT": 4.8}
{"BINDER": "SEQ ID NO: 520 (designed binder, D domain, on phage) MGSWHWFKEELAEIKEDLVALGGSEAELAWFEYDIAMFELSLQNYKGKGNPEVEALRKEAAAIRDELQAYRHN", "MEASUREMENT_UNITS": "ratio A450 target/IgG1-Fc", "ASSAY_RESULT": 3.1}
{"BINDER": "SEQ ID NO: 424 (designed binder, D domain, on phage) MGSWVEFYIRLDAIYVRLMALGGSEAELAAFEKEIAAFESELQAYKGKGNPEVEKLRSYAANIRQELQAYRHN", "MEASUREMENT_UNITS": "ratio A450 target/IgG1-Fc", "ASSAY_RESULT": 16.1}

Task: Let me know recorded ELISA_avg for SEQ ID NO: 605 (designed binder, D domain, on phage) MGSWEEFNWRLRAIDERLFALGGSEAELAWFEYDIAEFEEQLQVYKGKGNPEVEALRVEAAAIAEELYAYRHN , thanks.
Result: 5.4

Task: Using the record for SEQ ID NO: 421 (designed binder, D domain, on phage) MGSWNEFAWRLDAIYSRLAALGGSEAELAAFEKEIAAFESELQAYKGKGNPEVEWLRVAAANIRYELQAYRHN , state its measured ELISA_avg.
Result: 17.7

Task: Report ELISA_avg for SEQ ID NO: 385 (designed binder, D domain, on phage) MGSWEEFWERLDAIDTRLWALGGSEAELAAFEKEIAAFESELQAYKGKGNPEVEVLRNDAADIREPLQAYRHN
Result: 6.8

Task: Assign ELISA_avg to the following record: SEQ ID NO: 623 (designed binder, D domain, on phage) MGSWFEFETRLEAIDLRLWALGGSEAELATFEDVIAFFEDWLQFYKGKGNPEVEALKMEAWAIGEELHAYRHN
Result: 6.6

Task: Kindly indicate its recorded ELISA_avg. Item: SEQ ID NO: 562 (designed binder, D domain, on phage) MGSWYEFNMRLGAIDDRLQALGGSEAELAWFEDMIAIFEDDLQIYKGKGNPEVEALEQEAAAIHQELWAYRHN
Result: 3.8

Task: Let me know recorded ELISA_avg for SEQ ID NO: 426 (designed binder, D domain, on phage) MGSWVEFIYRLDAIYDRLEALGGSEAELAAFEKEIAAFESELQAYKGKGNPEVEVLRRYAANIRNELQAYRHN , thanks.
Result: 17

Task: Return the recorded ELISA_avg value; entry: SEQ ID NO: 386 (designed binder, D domain, on phage) MGSWMEFWERLEAIDMRLWALGGSEAELAAFEKEIAAFESELQAYKGKGNPEVEYLRDDAAVIRDDLQAYRHN
Result: 4.2

Task: In one line, give reported ELISA_avg of the entry SEQ ID NO: 570 (designed binder, D domain, on phage) MGSWSEFVDRLDAIFDRLWALGGSEAELAWFEDTIAHFEWNLQEYKGKGNPEVEALNGEADAITDELHAYRHN .
Result: 5.3

Task: Tell me its ELISA_avg given SEQ ID NO: 579 (designed binder, D domain, on phage) MGSWEEFDYRLYAIQDRLYALGGSEAELAFFEWEIADFEHMLQMYKGKGNPEVEALFQEADAIDAELHAYRHN as the entry.
Result: 4.4

Task: Quote ELISA_avg reported for SEQ ID NO: 596 (designed binder, D domain, on phage) MGSWIEFDERLDAIDFRLWALGGSEAELAWFEGWIAEFESDLQLYKGKGNPEVEALNEEANAIFHELSAYRHN please.
Result: 7

Task: Please give the documented ELISA_avg of SEQ ID NO: 592 (designed binder, D domain, on phage) MGSWFEFDDRLEAIFDRLWALGGSEAELAMFEFAIAEFEDALQEYKGKGNPEVEALYEEAVAIDEELYAYRHN
Result: 4.1

Task: Give me measured ELISA_avg, please, for this binder: SEQ ID NO: 373 (designed binder, D domain, on phage) MGSWFEFNYRLGAIEDRLWALGGSEAELAAFEKEIAAFESELQAYKGKGNPEVEMLRQIAAEIREFLQAYRHN
Result: 6.9

Task: Report ELISA_avg, nothing else, for this binder: SEQ ID NO: 402 (designed binder, D domain, on phage) MGSWSEFNMRLDAIYERLTALGGSEAELAAFEKEIAAFESELQAYKGKGNPEVEWLRHSAARIRLELQAYRHN
Result: 13.7
